# Tested On: recombinant human Mcl-1 (residues 171-327) / Bim interaction (Homo sapiens (Human), UniProt Q07820)
# Sequence (Q07820 171-327): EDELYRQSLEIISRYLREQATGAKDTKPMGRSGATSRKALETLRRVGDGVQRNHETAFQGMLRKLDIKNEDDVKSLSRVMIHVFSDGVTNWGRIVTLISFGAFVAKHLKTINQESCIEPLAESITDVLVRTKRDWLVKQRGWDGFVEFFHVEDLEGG
# Run Description: biochemical
# Format: binding
# Assay Conditions: TR-FRET, Mcl-1(171-327) / biotin-Bim (51-76); read-out: Mcl-1 HTRF IC50
Class definitions on IC50: low (below 100 pM), mid (100 pM to below 400 pM), high (400 pM or more)

CO[C@@]1(CC(=O)On2nnc3cccnc32)/C=C/C[C@H](C)[C@@H](C)S(=O)(=O)NC(=O)c2ccc3c(c2)N(C[C@@H]2CC[C@H]21)C[C@@]1(CCCc2cc(Cl)ccc21)CO3    high
C[C@@H]1[C@@H](C)C/C=C/[C@@](O)(Cc2ccccn2)[C@@H]2CC[C@H]2CN2C[C@@]3(CCCc4cc(Cl)ccc43)COc3ccc(cc32)C(=O)NS1(=O)=O [Example 100242]    high
C[C@@H]1[C@@H](C)C/C=C/[C@@](O)(CCCO)[C@@H]2CC[C@H]2CN2C[C@@]3(CCCc4cc(Cl)ccc43)COc3ccc(cc32)C(=O)NS1(=O)=O (stereo in doubt) [Example 100128]    low
CO[C@@]1(COCCN2CCOCC2)/C=C/C[C@H](C)[C@@H](C)S(=O)(=O)NC(=O)c2ccc3c(c2)N(C[C@@H]2CC[C@H]21)C[C@@]1(CCCc2cc(Cl)ccc21)CO3    low
CO[C@@]1([C@@H](C)O)CCC[C@H](C)[C@@H](C)S(=O)(=O)NC(=O)c2ccc3c(c2)N(C[C@@H]2CC[C@H]21)C[C@@]1(CCCc2cc(Cl)ccc21)CO3    high
C[C@@H]1[C@@H](C)CCC[C@@](O)(Cc2nccs2)[C@@H]2CC[C@H]2CN2C[C@@]3(CCCc4cc(Cl)ccc43)COc3ccc(cc32)C(=O)NS1(=O)=O (single isomer, unassigned) [Example 100250]    mid
CO[C@@]1(CC(=O)N(C)CCN2CCOCC2)/C=C/C[C@H](C)[C@@H](C)S(=O)(=O)NC(=O)c2ccc3c(c2)N(C[C@@H]2CC[C@H]21)C[C@@]1(CCCc2cc(Cl)ccc21)CO3    mid
COCCOC[C@@]1(O)/C=C/C[C@H](C)[C@@H](C)S(=O)(=O)NC(=O)c2ccc3c(c2)N(C[C@@H]2CC[C@H]21)C[C@@]1(CCCc2cc(Cl)ccc21)CO3    low
C[C@@H]1[C@@H](C)C/C=C/[C@@](O)(c2ncccn2)[C@@H]2CC[C@H]2CN2C[C@@]3(CCCc4cc(Cl)ccc43)COc3ccc(cc32)C(=O)NS1(=O)=O    mid

---

# Tested On: recombinant human Mcl-1 (residues 171-327) / Bim interaction (Homo sapiens (Human))
# Run Description: biochemical
# Type: binding
# Assay Conditions: 0.1 nM Mcl-1(171-327), 0.05 nM biotin-Bim (51-76); read-out: Mcl-1 HTRF IC50
pIC50: −log10 of the molar value.
Recorded pIC50 by entry
Result Type: pIC50

C[C@@H]1[C@@H](C)C/C=C/[C@]2(CN3CCN(C)C[C@@H]3CO2)[C@@H]2CC[C@H]2CN2C[C@@]3(CCCc4cc(Cl)ccc43)COc3ccc(cc32)C(=O)NS1(=O)=O (single isomer, unassigned) [Example 133]    9.72
CO[C@@]1(CN2CCN(CC3OCCO3)CC2)/C=C/C[C@H](C)[C@@H](C)S(=O)(=O)NC(=O)c2ccc3c(c2)N(C[C@@H]2CC[C@H]21)C[C@@]1(CCCc2cc(Cl)ccc21)CO3    9.67
COCC[C@@H]1[C@@H](C)C/C=C/[C@](CN2CCN3CCOC[C@@H]3C2)(OC)[C@@H]2CC[C@H]2CN2C[C@@]3(CCCc4cc(Cl)ccc43)COc3ccc(cc32)C(=O)NS1(=O)=O    10.14
COCC[C@@H]1[C@@H](C)C/C=C/[C@](CN2CCN(C)CC2)(OC)[C@@H]2CC[C@H]2CN2C[C@@]3(CCCc4cc(Cl)ccc43)COc3ccc(cc32)C(=O)NS1(=O)=O    9.97
CO[C@@]1(CN2CCN(CCO)CC2)/C=C/C[C@H](C)[C@@H](C)S(=O)(=O)NC(=O)c2ccc3c(c2)N(C[C@@H]2CC[C@H]21)C[C@@]1(CCCc2cc(Cl)ccc21)CO3    9.78
CO[C@@]1(CN2CCN(C3CS(=O)(=O)C3)CC2)/C=C/C[C@H](C)[C@@H](C)S(=O)(=O)NC(=O)c2ccc3c(c2)N(C[C@@H]2CC[C@H]21)C[C@@]1(CCCc2cc(Cl)ccc21)CO3    9.93
COC[C@@H]1[C@@H](C)C/C=C/[C@](CN2CCN(C3COC3)CC2)(OC)[C@@H]2CC[C@H]2CN2C[C@@]3(CCCc4cc(Cl)ccc43)COc3ccc(cc32)C(=O)NS1(=O)=O    9.88
CO[C@]1(CN2CCN(C3COC3)CC2)/C=C/C[C@H](C)[C@@H](C)S(=O)(=O)NC(=O)c2ccc3c(c2)N(C[C@@H]2CC[C@H]21)C[C@@]1(CCCc2cc(Cl)ccc21)CO3    10.03
C[C@@H]1[C@@H](C)C/C=C/[C@@]2(CN3CCOC[C@H]3CO2)[C@@H]2CC[C@H]2CN2C[C@@]3(CCCc4cc(Cl)ccc43)COc3ccc(cc32)C(=O)NS1(=O)=O    9.61
C=CC(=O)N1CCN2CCN(C[C@]3(OC)/C=C/C[C@H](C)[C@@H](C)S(=O)(=O)NC(=O)c4ccc5c(c4)N(C[C@@H]4CC[C@H]43)C[C@@]3(CCCc4cc(Cl)ccc43)CO5)C[C@H]2C1    9.79
CCO[C@@]1(CN2CCN3CCOC[C@@H]3C2)/C=C/C[C@H](C)[C@@H](C)S(=O)(=O)NC(=O)c2ccc3c(c2)N(C[C@@H]2CC[C@H]21)C[C@@]1(CCCc2ccccc21)CO3    9.37
COCC[C@@H]1[C@@H](C)C/C=C/[C@](CN2CCN(C(C)(C)COC)CC2)(OC)[C@@H]2CC[C@H]2CN2C[C@@]3(CCCc4cc(Cl)ccc43)COc3ccc(nc32)C(=O)NS1(=O)=O    10.02
CCCCO[C@]1(CN2CCN3CCOC[C@@H]3C2)/C=C/C[C@H](C)[C@@H](C)S(=O)(=O)NC(=O)c2ccc3c(c2)N(C[C@@H]2CC[C@H]21)C[C@@]1(CCCc2cc(Cl)ccc21)CO3    9.85
CO[C@@]1(CN2CCC3(CC2)CN(C)C(=O)O3)/C=C/C[C@H](C)[C@@H](C)S(=O)(=O)NC(=O)c2ccc3c(c2)N(C[C@@H]2CC[C@H]21)C[C@@]1(CCCc2cc(Cl)ccc21)CO3    9.67
COCC[C@@H]1[C@@H](C)C/C=C/[C@](CN2CCN(C(C)C)CC2)(OC)[C@@H]2CC[C@H]2CN2C[C@@]3(CCCc4cc(Cl)ccc43)COc3ccc(nc32)C(=O)NS1(=O)=O    10.07
CNC[C@@]1(OC)/C=C/C[C@H](C)[C@@H](C)S(=O)(=O)NC(=O)c2ccc3c(c2)N(C[C@@H]2CC[C@H]21)C[C@@]1(CCCc2cc(Cl)ccc21)CO3    8.88
COCCN1CCN(C[C@]2(OC)/C=C/C[C@H](C)[C@@H](C)S(=O)(=O)NC(=O)c3ccc4c(c3)N(C[C@@H]3CC[C@H]32)C[C@@]2(CCCc3cc(Cl)ccc32)CO4)CC1(C)C    9.73
CO[C@]1(CN(C)C)/C=C/C[C@H](C)[C@@H](C)S(=O)(=O)NC(=O)c2ccc3c(c2)N(C[C@@H]2CC[C@H]21)C[C@@]1(CCCc2cc(Cl)ccc21)CO3    8.42
CO[C@]1(CN2C[C@H]3C[C@@H]2CN3C(C)C)/C=C/C[C@H](C)[C@@H](C)S(=O)(=O)NC(=O)c2ccc3c(c2)N(C[C@@H]2CC[C@H]21)C[C@@]1(CCCc2cc(Cl)ccc21)CO3    9.93

---

Recorded pIC50 by entry
# Tested On: recombinant human Mcl-1 (residues 171-327) / Bim interaction (Homo sapiens (Human), UniProt Q07820)
# Run Description: biochemical
# Type: binding
# Assay Conditions: 0.1 nM Mcl-1(171-327), 0.05 nM biotin-Bim (51-76); read-out: Mcl-1 HTRF IC50
pIC50: −log10 of the molar value.
Result Type: pIC50

CCCN1CCN(C[C@@]2(OCC)/C=C/C[C@H](C)[C@@H](C)S(=O)(=O)NC(=O)c3ccc4c(c3)N(C[C@@H]3CC[C@H]32)C[C@@]2(CCCc3cc(Cl)ccc32)CO4)CC1    9.43
CO[C@@]1(CN2CCN(C3(C)COC3)CC2)/C=C/C[C@H](C)[C@@H](C)S(=O)(=O)NC(=O)c2ccc3c(c2)N(C[C@@H]2CC[C@H]21)C[C@@]1(CCCc2cc(Cl)ccc21)CO3    10.19
CO[C@@]1(CN2CCN3C(=O)[C@H](C)OC[C@@H]3C2)/C=C/C[C@H](C)[C@@H](C)S(=O)(=O)NC(=O)c2ccc3c(c2)N(C[C@@H]2CC[C@H]21)C[C@@]1(CCCc2cc(Cl)ccc21)CO3    9.36
CO[C@@]1(CN2CCc3cncnc3C2)/C=C/C[C@H](C)[C@@H](C)S(=O)(=O)NC(=O)c2ccc3c(c2)N(C[C@@H]2CC[C@H]21)C[C@@]1(CCCc2cc(Cl)ccc21)CO3    9.83
CC(C)CO[C@]1(CN2CCN3CCOC[C@@H]3C2)/C=C/C[C@H](C)[C@@H](C)S(=O)(=O)NC(=O)c2ccc3c(c2)N(C[C@@H]2CC[C@H]21)C[C@@]1(CCCc2cc(Cl)ccc21)CO3    9.96
CCO[C@@]1(CN2CCN3CCOC[C@@H]3C2)/C=C/C[C@H](C)[C@@H](CC2CCC2)S(=O)(=O)NC(=O)c2ccc3c(c2)N(C[C@@H]2CC[C@H]21)C[C@@]1(CCCc2cc(Cl)ccc21)CO3    9.54
CO[C@]1(CN2CC(C)(N(C)C)C2)/C=C/C[C@H](C)[C@@H](C)S(=O)(=O)NC(=O)c2ccc3c(c2)N(C[C@@H]2CC[C@H]21)C[C@@]1(CCCc2cc(Cl)ccc21)CO3    9.54
CO[C@@]1(CN2CC(C)(N(C)C)C2)/C=C/C[C@H](C)[C@@H](C)S(=O)(=O)NC(=O)c2ccc3c(c2)N(C[C@@H]2CC[C@H]21)C[C@@]1(CCCc2cc(Cl)ccc21)CO3    9.94
CO[C@]1(CN2CCN(C(C)C)[C@H](C)C2)/C=C/C[C@H](C)[C@@H](C)S(=O)(=O)NC(=O)c2ccc3c(c2)N(C[C@@H]2CC[C@H]21)C[C@@]1(CCCc2cc(Cl)ccc21)CO3    10.28
COCC[C@@H]1[C@@H](C)C/C=C/[C@@](CN2CCN(C3COC3)CC2)(OC)[C@@H]2CC[C@H]2CN2C[C@@]3(CCCc4cc(Cl)ccc43)COc3ccc(cc32)C(=O)NS1(=O)=O    10.18
COC[C@@H]1[C@@H](C)C/C=C/[C@@](CN2CCN(C3COC3)CC2)(OC)[C@@H]2CC[C@H]2CN2C[C@@]3(CCCc4cc(Cl)ccc43)COc3ccc(cc32)C(=O)NS1(=O)=O    10.07
CO[C@@]1(CN2CCN(C3CN(C)C3)CC2)/C=C/C[C@H](C)[C@@H](C)S(=O)(=O)NC(=O)c2ccc3c(c2)N(C[C@@H]2CC[C@H]21)C[C@@]1(CCCc2cc(Cl)ccc21)CO3    9.93
CO[C@]1(CN2CCN3C(=O)COC[C@@H]3C2)/C=C/C[C@H](C)[C@@H](C)S(=O)(=O)NC(=O)c2ccc3c(c2)N(C[C@@H]2CC[C@H]21)C[C@@]1(CCCc2cc(Cl)ccc21)CO3    10.01
CO[C@@]1(CN2CCN3CCN(S(C)(=O)=O)C[C@@H]3C2)/C=C/C[C@H](C)[C@@H](C)S(=O)(=O)NC(=O)c2ccc3c(c2)N(C[C@@H]2CC[C@H]21)C[C@@]1(CCCc2cc(Cl)ccc21)CO3 (single isomer, unassigned) [Example 244]    8.78
COCCN1CCN(C[C@]2(OC)/C=C/C[C@H](C)[C@@H](C)S(=O)(=O)NC(=O)c3ccc4c(c3)N(C[C@@H]3CC[C@H]32)C[C@@]2(CCCc3cc(Cl)ccc32)CO4)CC1    9.67
COCCOCCN1CCN(C[C@]2(OC)/C=C/C[C@H](C)[C@@H](C)S(=O)(=O)NC(=O)c3ccc4c(c3)N(C[C@@H]3CC[C@H]32)C[C@@]2(CCCc3cc(Cl)ccc32)CO4)CC1    10.02
CC(C)O[C@]1(CN2CCN(C(C)C)[C@H](C)C2)/C=C/C[C@H](C)[C@@H](C)S(=O)(=O)NC(=O)c2ccc3c(c2)N(C[C@@H]2CC[C@H]21)C[C@@]1(CCCc2cc(Cl)ccc21)CO3    10.14
CO[C@]1(CN2CCN3CCCC[C@@H]3C2)/C=C/C[C@H](C)[C@@H](CC2CCC2)S(=O)(=O)NC(=O)c2ccc3c(c2)N(C[C@@H]2CC[C@H]21)C[C@@]1(CCCc2cc(Cl)ccc21)CO3    9.35
